Please provide measured self-cleavage for the entries that follow.
B1: HDV Ribozyme (parent)
chain: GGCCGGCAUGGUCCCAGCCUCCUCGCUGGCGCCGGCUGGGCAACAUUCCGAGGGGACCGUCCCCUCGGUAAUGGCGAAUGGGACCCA

variants of: B1; test: self-cleavage, relative activity (ratio to wild type); higher = more cleavage; co-transcriptional
Answers are plain numbers.

G2C G25A	0.0528
G53U C61A	1.02
G10U A78G	0.449
C14A C64G	0.892

Can you give me self-cleavage for all of these, one by one?
1. G53A C58U
2. G40A G80U
3. G2C U27C
4. C18U C57U
5. C32G C33A

Result:
1: 0.987; 2: 0.217; 3: 0.0496; 4: 0.867; 5: 0.0615

Record self-cleavage for all entries; do not skip any.
1. U9C C32A
2. C19U C64G

Result:
0
0.0923

Batch: self-cleavage for all items listed.
1. C13A C48A
2. U12G A87C

Result:
1: 0; 2: 0.749
